Data origin, for the record: the supplement of paper PMC12042874

Test: amyloid nucleation score (Sup35N fusion, yeast selection) (log enrichment); library NNK3; higher = more nucleation; inactive = no reads after selection;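 further: zero at mode of non-aggregating sequences after 7 days selection at 30°C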
assay.metric: amyloid nucleation score

Observe how each entry below is paired with its result.
Q: # query: amyloid nucleation score of entry FVIVGSGSQSPEYIWNVKYE
Ans: -0.049

Q: # query: amyloid nucleation score of entry INRDYSVIVSGSYHHSSLTE
Ans: inactive

Q: # query: amyloid nucleation score of entry SSVMFVRIVLRIGGYHLAAR
Ans: inactive

Q: # query: amyloid nucleation score of entry SYGPRPYTHHSPHAAGMTLE
Ans: inactive

Q: # query: amyloid nucleation score of entry VGKFSHACLRIN
Ans: inactive

Q: # query: amyloid nucleation score of entry HPCFLW
Ans: inactive

Please give amyloid nucleation score for each item listed below.
1. SLLKINGGVIHYFSCRMEDW
2. MLCTTLRNYMTSSICFIRYQ
3. YYFCMLS
4. ALSMLTG

Ans:
1: 0.684; 2: inactive; 3: 2.55; 4: inactive
